Test: yeast display, Sf9 membrane polyspecificity reagent, FACS + sequencing; frameworks hold sequencing errors
Measured Property: polyreactivity (PSR sort gate)

Sequence Data	Endpoint Value
QVQLVESGGGLVHAGGSLRLSCAASGFIFWRYAMGWYRQAPGKERELVATITSSGGTTHYADSVKGRFTISRDNAKNTVYLQMNSLKPEDTAVFYCATRNGVGSLFYSRNYWGQGTQVSVSS	high polyreactivity
QVQLVESGGGLVQAGGSLRLSCAASGRIFYYYAMGWYRQAPGKERELVAAISSSGGSTYYADSVKGRYTISRDNAKNTVYLQMNSLKPEDTAVYYCNARTRYDMGYWGQGTQVTVSS	high polyreactivity
QVQLVESGVGLVQAGGSLRLSCAASGITFEGYAMGWYRQAPGKERELVAAIRSSGTSTYYADSVKGRFTMSRDNAKNTVYLQMNSLKPEDTAVYYCNRARSSSRYDYWGQGTQVTVSS	low polyreactivity
QVQLVESGGGLVQAGGSLRLSCAASGRTFYSNAMGWYRQAPGKERELVASISYGGGTTHYADSVKGRFTISRDNAKNTVYLQINSVKPEDTAVYYCAADPEHQWESVTIGEYDYWGQGTQVTVSS	low polyreactivity
QVQLVESGGGLVQAGGSLRLSCAASGNHLRSLCLGWYRQAPGKERELVAAITSSGASTYYADSVKGRFTISRDNAKNTVYLQMNSLKPEDTAVYYCAAYLFRRYDYWGQGTQVTVSS	low polyreactivity
